- Protocol summary: chemical genetic growth profiling, strain panel (AID 1159580);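 also: tested at 20 µM; growth read once vehicle control cultures reached saturation at 30 °C; 1 = growth at the plate median or of vehicle wells; lower values mean less growth of the strain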
- Assay conditions: S. cerevisiae deletion strains, growth OD, locus YNL153C, strain GIM3
The whole screen tested about 5,500 compounds, of which about 2,000 (36%) were called active. About 18% were inconclusive and are not listed. Rule as the data show it: active = normalized growth mostly below about 0.91 (no sharp cut-off); inconclusive = no clear call, values can overlap the other calls; inactive = mostly above about 0.92. Some of the results follow.
Labels: 1 for active, -1 for inactive

[[record]]
compound = "CC(=O)OCC(=O)[C@@]1(O)CCC2C3CCC4=CC(=O)CC[C@]4(C)[C@@]3(F)[C@@H](O)C[C@@]21C (stereo partly specified)"
label_value = -1

[[record]]
compound = "O=C(c1ccc(Cl)cc1)N1CCN(c2ccc(C(F)(F)F)cn2)CC1"
label_value = 1

[[record]]
compound = "O=c1oc(Cl)c(Cl)c2ccccc12"
label_value = 1

[[record]]
compound = "Cc1c(-n2cccc2)cc2c(c1[N+](=O)[O-])C(C)(C)CC2(C)C"
label_value = -1

[[record]]
compound = "FC(F)(F)c1ccc(-n2cncn2)nc1"
label_value = -1

[[record]]
compound = "COP(=S)(OC)SCn1nnc2ccccc2c1=O"
label_value = -1


----------
Entries and their normalized growth values follow.
- Protocol summary: chemical genetic growth profiling, strain panel (AID 1159580);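 also: tested at 20 µM; growth read once vehicle control cultures reached saturation at 30 °C; 1 = growth at the plate median or of vehicle wells; lower values mean less growth of the strain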
- Assay conditions: S. cerevisiae deletion strains, growth OD, locus YOR061W, strain CKA2, hits give low values
The whole screen tested about 5,500 compounds, of which about 2,000 (36%) were called active. Inconclusive results (about 18%) are left out. The list shows a part of the results.
Quantity kind: normalized growth

[[record]]
compound = "CCCCC/C=C\\C/C=C\\C/C=C\\C/C=C\\CCCC(=O)O"
observed_measurement = 0.986

[[record]]
compound = "Nc1ccccc1C(=O)N/N=C\\c1cc(Cl)cc(Cl)c1O"
observed_measurement = 0.491

[[record]]
compound = "Cc1cccc(N(C)C(=S)Oc2ccc3ccccc3c2)c1"
observed_measurement = 0.966

[[record]]
compound = "FC(F)(F)c1ccc(NC(=S)Nc2ccc(C(F)(F)F)cc2Cl)c(Cl)c1"
observed_measurement = 0.911

[[record]]
compound = "CCOC(=O)C1C(c2ccc(Br)cc2)C(C(=O)OCC)C(O)(C(F)(F)F)NC1(O)C(F)(F)F (stereo unspecified)"
observed_measurement = 0.995

[[record]]
compound = "CN(NC(=S)Nc1cc(Cl)ccc1Cl)c1ccc(C(F)(F)F)cc1[N+](=O)[O-]"
observed_measurement = 0.907


----------
- Protocol summary: chemical genetic growth profiling, strain panel (AID 1159580);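 also: tested at 20 µM; growth read once vehicle control cultures reached saturation at 30 °C; 1 = growth at the plate median or of vehicle wells; lower values mean less growth of the strain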
- Assay conditions: S. cerevisiae strains, growth OD, strain wild type, hits give low values
Among all 5,500 compounds or so, about 2,000 (36%) were called active. Roughly 18% stayed inconclusive and do not appear here. Some of the results follow.
Quantity kind: normalized growth

[[record]]
compound = "CC(=O)/C(=C\\N(C)C)Sc1ccc(Cl)cc1"
observed_measurement = 0.975

[[record]]
compound = "Cc1ccc(/C(C#N)=C2C=C/C(=N/O)C(Cl)=C\\2Cl)cc1"
observed_measurement = 0.929

[[record]]
compound = "CCCCC(=O)N(Cc1ccc(-c2ccccc2-c2nn[nH]n2)cc1)[C@H](C(=O)O)C(C)C"
observed_measurement = 0.973

[[record]]
compound = "CCCc1nc(C(C)(C)O)c(C(=O)OCc2oc(=O)oc2C)n1Cc1ccc(-c2ccccc2-c2nn[nH]n2)cc1"
observed_measurement = 1.02

[[record]]
compound = "CC(=O)O[C@@H]1CC2C(C)(C)C(=O)[C@@H]3O[C@@H]3[C@]2(C)C2CC[C@]3(C)C(=CC(=O)O[C@H]3c3ccoc3)[C@@]21C (some centres undefined)"
observed_measurement = 0.973

[[record]]
compound = "c1coc(CNc2ncnc3nc[nH]c23)c1"
observed_measurement = 0.999

[[record]]
compound = "O=S(=O)(O)c1cccc2cccc(Cl)c12"
observed_measurement = 0.984

[[record]]
compound = "Cc1cccc(N(C)C(=S)Oc2ccc3ccccc3c2)c1"
observed_measurement = 1.01

[[record]]
compound = "Cn1c([N+](=O)[O-])cnc1COC(N)=O"
observed_measurement = 1.01

[[record]]
compound = "COc1ccccc1N=C1SCC(=O)N1Cc1ccco1"
observed_measurement = 1

[[record]]
compound = "CSc1sc(-c2ccn[nH]2)c(-c2ccccc2)c1C#N"
observed_measurement = 0.911

[[record]]
compound = "O=c1[nH]cnc2nc[nH]c12"
observed_measurement = 1

[[record]]
compound = "c1ccc2c(c1)-c1cccc3cccc-2c13"
observed_measurement = 0.863

[[record]]
compound = "N/C(=N/OC(=O)C(Cl)Cl)c1cccc(Cl)c1Cl"
observed_measurement = 0.972

[[record]]
compound = "COc1c2occc2cc2ccc(=O)oc12"
observed_measurement = 1

[[record]]
compound = "CN1Cc2c(N)cccc2C(c2ccccc2)C1 (centres undefined)"
observed_measurement = 1

[[record]]
compound = "NCCS"
observed_measurement = 1

[[record]]
compound = "CN1CCN(C(c2ccccc2)c2ccccc2)CC1"
observed_measurement = 1.01

[[record]]
compound = "N#C/C(=C\\c1ccc(O)cc1)C(=O)O"
observed_measurement = 0.983

[[record]]
compound = "Nc1ncnc2nc[nH]c12"
observed_measurement = 0.879

[[record]]
compound = "CCS(=O)(=O)CCn1c([N+](=O)[O-])cnc1C"
observed_measurement = 1.05

[[record]]
compound = "CCOc1nc2cccc(C(=O)OC(C)OC(=O)OC3CCCCC3)c2n1Cc1ccc(-c2ccccc2-c2nn[nH]n2)cc1 (centres undefined)"
observed_measurement = 0.997

[[record]]
compound = "N#C/C(=N/Nc1ccc(C(F)(F)F)cc1)C(=O)C1CC1"
observed_measurement = 0.943

[[record]]
compound = "COC(=O)c1ccccc1-n1cccc1C(=O)OC"
observed_measurement = 0.993

